Please respond with reported INH for every item in the list.
biological target: Solute carrier organic anion transporter family member 1B1 (Homo sapiens, UniProt Q9Y6L6); experiment: Inhibition of human liver OATP1B1 expressed in HEK293 Flp-In cells assessed as reduction in E17-betaG uptake at 20 uM by scintillation counting; conditions: hek293, 20 µM
Answers are plain numbers, in %.

1) C[C@]12CC[C@@H]3c4ccc(OS(=O)(=O)O)cc4CC[C@H]3[C@@H]1CCC2=O | 98.1
2) [H]/N=C(/N)N/C(=N/[H])NCCc1ccccc1 | 34.5

Provide INH values for the following items, in order.
1. NC(=O)N1c2ccccc2C=Cc2ccccc21 [CARBAMAZEPINE]
2. O=c1c(-c2ccc(O)cc2)coc2cc(O)ccc12
3. COc1cc(Cc2cnc(N)nc2N)cc(OC)c1OC
4. Fc1ccc([C@@H]2CCNC[C@H]2COc2ccc3c(c2)OCO3)cc1
5. c1cnc2cc3c(cc2n1)[C@@H]1CNC[C@H]3C1

1. 13.3
2. 35
3. 24.7
4. 33
5. 24.7

* * *

Target: Solute carrier organic anion transporter family member 1B1 (Homo sapiens)
Sequence (Q9Y6L6 whole entry): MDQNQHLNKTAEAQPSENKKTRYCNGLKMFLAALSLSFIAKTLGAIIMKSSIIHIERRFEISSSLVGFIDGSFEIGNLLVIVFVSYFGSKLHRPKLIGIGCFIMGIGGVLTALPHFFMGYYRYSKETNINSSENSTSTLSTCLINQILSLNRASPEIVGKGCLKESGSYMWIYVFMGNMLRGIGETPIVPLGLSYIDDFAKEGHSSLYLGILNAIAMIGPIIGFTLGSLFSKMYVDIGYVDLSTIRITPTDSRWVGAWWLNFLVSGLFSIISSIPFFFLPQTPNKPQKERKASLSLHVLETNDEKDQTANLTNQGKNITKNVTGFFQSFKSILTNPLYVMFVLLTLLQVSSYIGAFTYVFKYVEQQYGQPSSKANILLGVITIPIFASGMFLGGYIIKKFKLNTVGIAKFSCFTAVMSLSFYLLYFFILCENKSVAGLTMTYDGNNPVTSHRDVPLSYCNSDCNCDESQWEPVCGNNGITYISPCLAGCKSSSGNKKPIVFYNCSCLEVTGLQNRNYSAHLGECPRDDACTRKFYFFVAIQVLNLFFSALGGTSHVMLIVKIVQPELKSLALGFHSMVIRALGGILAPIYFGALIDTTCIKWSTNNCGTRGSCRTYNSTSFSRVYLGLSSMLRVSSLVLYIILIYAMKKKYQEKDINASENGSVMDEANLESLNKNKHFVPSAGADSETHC
Test: Inhibition of human liver OATP1B1 expressed in HEK293 Flp-In cells assessed as reduction in E17-betaG uptake at 20 uM by scintillation counting
Details: hek293, 20 µM
So basically: INH at 30% or higher? That is True. Lower than 30%? That is False.

Observe how each entry below is paired with its result.
1) CC(=O)[C@H]1CC[C@H]2[C@@H]3CCC4=CC(=O)CC[C@]4(C)[C@H]3CC[C@]12C | True
2) CC[C@H](C)C(=O)O[C@H]1C[C@H](O)C=C2C=C[C@H](C)[C@H](CC[C@@H](O)C[C@@H](O)CC(=O)O)[C@H]21 | True
3) CCc1cccc2cc(C(O)CNC(C)(C)C)oc12 (stereo not drawn) | False

# ---- query molecule ----
INH >= 30% for "CC(C)(C)NC(=O)[C@@H]1CN(Cc2cccnc2)CCN1C[C@@H](O)C[C@@H](Cc1ccccc1)C(=O)N[C@H]1c2ccccc2C[C@H]1O.O" ?
True

* * *

molecular target: Solute carrier organic anion transporter family member 1B3 (Homo sapiens, UniProt Q9NPD5); experiment: Inhibition of human liver OATP1B3 expressed in HEK293 Flp-In cells assessed as reduction in [3H]E17-betaG uptake at 20 uM incubated for 5 mins by scintillation counting; conditions: hek293, 5 min
Sequence (Q9NPD5 whole entry): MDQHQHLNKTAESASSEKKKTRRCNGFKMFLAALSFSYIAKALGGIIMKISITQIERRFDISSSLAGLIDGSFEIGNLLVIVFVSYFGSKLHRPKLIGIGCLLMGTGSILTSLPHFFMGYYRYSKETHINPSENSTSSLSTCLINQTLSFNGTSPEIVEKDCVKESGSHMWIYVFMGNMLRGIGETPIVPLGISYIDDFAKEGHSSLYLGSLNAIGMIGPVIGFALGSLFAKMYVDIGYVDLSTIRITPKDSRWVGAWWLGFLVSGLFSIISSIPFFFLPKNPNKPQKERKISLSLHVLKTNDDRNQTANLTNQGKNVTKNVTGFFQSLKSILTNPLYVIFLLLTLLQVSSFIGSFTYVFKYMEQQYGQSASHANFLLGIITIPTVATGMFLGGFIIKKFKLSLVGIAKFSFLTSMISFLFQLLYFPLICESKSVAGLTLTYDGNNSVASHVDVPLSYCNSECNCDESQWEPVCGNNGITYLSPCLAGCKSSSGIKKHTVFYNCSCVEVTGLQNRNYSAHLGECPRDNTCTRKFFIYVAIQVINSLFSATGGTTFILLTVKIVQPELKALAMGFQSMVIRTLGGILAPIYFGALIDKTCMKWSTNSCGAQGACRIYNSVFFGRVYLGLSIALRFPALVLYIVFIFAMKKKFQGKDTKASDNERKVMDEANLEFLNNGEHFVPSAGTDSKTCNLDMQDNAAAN
measured.attribute: INH

Provide INH values for the following items, in order.
1. O=C1Nc2ccc(Cl)cc2[C@@](C#CC2CC2)(C(F)(F)F)O1 [EFAVIRENZ]
2. COc1ccc(CCN(C)CCCC(C#N)(c2ccc(OC)c(OC)c2)C(C)C)cc1OC (configuration not stated)
3. NCCCC[C@H](N[C@@H](CCc1ccccc1)C(=O)O)C(=O)N1CCC[C@H]1C(=O)O [LISINOPRIL ANHYDROUS]

18.2%
-9%
9%

* * *

target: UniProt Q9NPD5; assay: Inhibition of human liver OATP1B3 expressed in HEK293 Flp-In cells assessed as reduction in [3H]E17-betaG uptake at 20 uM incubated for 5 mins by scintillation counting; details: hek293, 5 min
measured.attribute: INH (%)
Numbers only, in %.

Known INH results, listed for orientation:
1. COc1cc2c(cc1OC)CN(CCc1ccc(NC(=O)c3cccc4c(=O)c5cccc(OC)c5[nH]c34)cc1)CC2 | 37.4
2. CNCC[C@@H](Oc1ccccc1C)c1ccccc1 | 31.6
3. CC(C)C(=O)Nc1ccc([N+](=O)[O-])c(C(F)(F)F)c1 [FLUTAMIDE] | 9

Provide INH values for the following items, in order.
1. CCC1(c2ccccc2)C(=O)NC(=O)NC1=O
2. C[C@H](CCC(=O)NCC(=O)O)[C@H]1CC[C@H]2[C@@H]3CC[C@@H]4C[C@H](O)CC[C@]4(C)[C@H]3C[C@H](O)[C@]12C [GLYCODEOXYCHOLATE]
3. CN(C)CC/C=C1/c2ccccc2Sc2ccc(Cl)cc21
4. COCCCC/C(=N\OCCN)c1ccc(C(F)(F)F)cc1
5. C[C@H](Cn1cnc2c(N)ncnc21)OCP(=O)(O)O [TENOFOVIR ANHYDROUS]
6. CCN(CC)CCCC(C)Nc1ccnc2cc(Cl)ccc12 (configuration not stated)

7.3
79
-6.9
29.2
33.6
-7.2

Provide INH values for the following items, in order.
1. CC(NC(C)(C)C)C(=O)c1cccc(Cl)c1 (configuration not stated)
2. C[C@]12C=CC(=O)C=C1CC[C@@H]1[C@@H]2[C@@H](O)C[C@@]2(C)[C@H]1CC[C@]2(O)C(=O)CO
3. Nc1ccc(S(=O)(=O)Nc2ccnn2-c2ccccc2)cc1

1. 7.2
2. 9.6
3. 0.7

Provide INH values for the following items, in order.
1. C[C@@H]1C[C@H]2[C@@H]3CCC4=CC(=O)C=C[C@]4(C)[C@@]3(F)[C@@H](O)C[C@]2(C)[C@@]1(O)C(=O)CO
2. COc1ccccc1OCC(O)CN1CCN(CC(=O)Nc2c(C)cccc2C)CC1 (configuration not stated)
3. CC(=O)S[C@@H]1CC2=CC(=O)CC[C@]2(C)[C@H]2CC[C@@]3(C)[C@@H](CC[C@@]34CCC(=O)O4)[C@H]12

1: 34.2; 2: -14.9; 3: -34.2

Provide INH values for the following items, in order.
1. CC[C@@]1(O)C(=O)OCc2c1cc1n(c2=O)Cc2cc3c(CN(C)C)c(O)ccc3nc2-1
2. CC(C)NCC(O)c1ccc(NS(C)(=O)=O)cc1 (configuration not stated)

17.3
6.6

* * *

Please respond with reported INH for every item in the list.
Target: Solute carrier organic anion transporter family member 1B1 (Homo sapiens)
Sequence (Q9Y6L6 whole entry): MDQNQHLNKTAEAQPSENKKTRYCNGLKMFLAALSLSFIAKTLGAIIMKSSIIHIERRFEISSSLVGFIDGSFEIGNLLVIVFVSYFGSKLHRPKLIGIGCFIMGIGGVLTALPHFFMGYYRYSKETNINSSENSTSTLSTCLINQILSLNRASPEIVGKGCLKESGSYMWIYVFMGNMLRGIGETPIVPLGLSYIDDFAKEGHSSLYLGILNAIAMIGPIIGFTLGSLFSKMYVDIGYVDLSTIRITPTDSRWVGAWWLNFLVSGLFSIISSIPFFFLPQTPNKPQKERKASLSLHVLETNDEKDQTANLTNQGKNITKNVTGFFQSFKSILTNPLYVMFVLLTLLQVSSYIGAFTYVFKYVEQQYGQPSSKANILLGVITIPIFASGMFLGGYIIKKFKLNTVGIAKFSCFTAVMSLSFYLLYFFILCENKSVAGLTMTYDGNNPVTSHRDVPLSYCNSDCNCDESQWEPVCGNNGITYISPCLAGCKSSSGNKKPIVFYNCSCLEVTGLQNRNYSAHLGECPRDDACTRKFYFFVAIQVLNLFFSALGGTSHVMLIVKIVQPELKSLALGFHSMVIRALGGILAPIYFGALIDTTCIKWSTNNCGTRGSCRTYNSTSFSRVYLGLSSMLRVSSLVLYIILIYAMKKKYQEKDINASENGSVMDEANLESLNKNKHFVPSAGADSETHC
Assay: Inhibition of human liver OATP1B1 expressed in HEK293 Flp-In cells assessed as reduction in E17-betaG uptake at 20 uM by scintillation counting
Conditions: hek293, 20 µM
Give bare numbers, in %.

Known INH results, listed for orientation:
1) CC(C)NCC(O)COc1cccc2[nH]ccc12 (stereo not given) [PINDOLOL] | -24.7
2) C[C@@H]1C[C@H]2[C@@H]3CCC4=CC(=O)C=C[C@]4(C)[C@@]3(F)[C@@H](O)C[C@]2(C)[C@@]1(O)C(=O)CO [DEXAMETHASONE] | 10.7
3) CC(C)C(=O)Nc1ccc([N+](=O)[O-])c(C(F)(F)F)c1 [FLUTAMIDE] | 6.8
4) NNC(=O)c1ccncc1 [ISONIAZID] | 29.9

Provide INH values for the following items, in order.
1. O=C(O)c1cc(/N=N/c2ccc(S(=O)(=O)Nc3ccccn3)cc2)ccc1O [SULFASALAZINE]
2. C[C@H]1O[C@H](O[C@H]2[C@H](O)[C@@H](O)[C@@H](O[C@H]3[C@H](O)[C@@H](O)C(O)O[C@@H]3CO)O[C@@H]2CO)[C@H](O)[C@@H](O)[C@@H]1N[C@H]1C=C(CO)[C@@H](O)[C@H](O)[C@H]1O (stereo not given in full) [ACARBOSE]
3. O=C(O)C[C@H](O)C[C@H](O)/C=C/c1c(C2CC2)nc2ccccc2c1-c1ccc(F)cc1 [PITAVASTATIN]
4. CCCCC(=O)N(Cc1ccc(-c2ccccc2-c2nnn[nH]2)cc1)[C@H](C(=O)O)C(C)C
5. COc1cc2nc(N3CCN(C(=O)c4ccco4)CC3)nc(N)c2cc1OC [PRAZOSIN]
6. CCc1nn(CCCN2CCN(c3cccc(Cl)c3)CC2)c(=O)n1CCOc1ccccc1 [NEFAZODONE]
7. CC(C)OC(=O)C(C)(C)Oc1ccc(C(=O)c2ccc(Cl)cc2)cc1 [FENOFIBRATE]
8. O=C1OC(c2ccc(O)c(S(=O)(=O)[O-])c2)(c2ccc(O)c(S(=O)(=O)[O-])c2)c2c(Br)c(Br)c(Br)c(Br)c21.[Na+].[Na+] [SULFOBROMOPHTHALEIN SODIUM]

1. 92.1
2. 14.9
3. 97.4
4. 62.2
5. 25.1
6. 12
7. 5.4
8. 94.1
